Target: TRH receptors in human CNS tissue (cortical, hippocampal, spinal cord)
Assay: Competition binding with [3H][3-Me-His2]TRH, human CNS tissue membranes
Details: human CNS tissue; 5 h at 4° C.; read-out: IC50, displacement of [^3H][3-Me-His^2]TRH from CNS tissue
pIC50: −log10 of the molar value. Non-standard residues stand in square brackets, D forms with d. Residues, ends and D or L forms follow the SMILES beside them. pGlu = O=C1CC[C@@H](C(=O)O)N1
Parameter: pIC50. Scope: all listed entries.

NC(=O)[C@@H]1CCCN1C(=O)[C@H](Cc1cnc[nH]1)NC(=O)[C@@H]1CCC(=O)N1 [TRH, Thyrotropin releasing hormone, reference compound]: ~8.00

Now look at this entry.
Asked: Consider the molecule NC(=O)C[C@H](NC(=O)[C@@H]1CCC(=O)N1)C(=O)N1CCC[C@H]1C(=O)N[C@H](Cc1ccc(O)cc1)C(=O)N[C@H](Cc1c[nH]c2ccccc12)C(N)=O [Glp-Asn-Pro-D-Tyr-D-TrpNH2] ([pGlu]NP[dY][dW]-NH2) and give its recorded pIC50.
Given back: ~7.00

----------
Molecular target: [^3H][3-Me-His^2]TRH-labelled native TRH receptors in rat hippocampal membranes
Experiment: Displacement of [3H][3-Me-His2]TRH, native rat hippocampal membranes
Settings: native rat tissue; N = 3-6
Non-standard residues stand in square brackets, D forms with d. Residues, ends and D or L forms follow the SMILES beside them. *: point of attachment. AMC = Cc1cc(=O)oc2cc(N*)ccc12; pGlu = O=C1CC[C@@H](C(=O)O)N1
Parameter: Ki. Scope: all listed entries.
Write the answer as a number in µM, unit excluded.

Consider the reported Ki for these molecules:
NC(=O)C[C@H](NC(=O)[C@@H]1CCC(=O)N1)C(=O)N1CCC[C@H]1C(=O)N[C@H](Cc1ccc(O)cc1)C(=O)N[C@H](Cc1c[nH]c2ccccc12)C(N)=O [Glp-Asn-Pro-D-Tyr-D-TrpNH2] ([pGlu]NP[dY][dW]-NH2): 0.011
Cc1cc(=O)oc2cc(NC(=O)[C@@H](Cc3c[nH]c4ccccc34)NC(=O)[C@@H](Cc3c[nH]c4ccccc34)NC(=O)[C@@H](Cc3ccc(O)cc3)NC(=O)[C@@H]3CCCN3C(=O)[C@H](CC(N)=O)NC(=O)[C@@H]3CCC(=O)N3)ccc12 [Glp-Asn-Pro-DTyr-DTrp-DTrp-AMC] ([pGlu]NP[dY][dW][dW]-{AMC}): 0.03

Now look at this entry.
Asked: Consider the molecule Cn1cnc(C[C@H](NC(=O)[C@@H]2CCC(=O)N2)C(=O)N2CCC[C@H]2C(N)=O)c1 [[3-Me-His2]TRH, reference compound] and give its recorded Ki.
Given back: 0.034

----------
Target: [^3H][3-Me-His^2]TRH-labelled native TRH receptors in rat hippocampal membranes
Experiment: Displacement of [3H][3-Me-His2]TRH, native rat hippocampal membranes
Conditions: native rat tissue; N = 3-6
Non-standard residues stand in square brackets, D forms with d. Residues, ends and D or L forms follow the SMILES beside them. *: point of attachment. AMC = Cc1cc(=O)oc2cc(N*)ccc12; pGlu = O=C1CC[C@@H](C(=O)O)N1
value.kind: Ki (nM)
Write the answer as a number in nM, unit excluded.

Consider the reported Ki for these compounds:
NC(=O)C[C@H](NC(=O)[C@@H]1CCC(=O)N1)C(=O)N1CCC[C@H]1C(=O)N[C@@H](Cc1ccc(O)cc1)C(=O)N[C@@H](Cc1c[nH]c2ccccc12)C(N)=O [Glp-Asn-Pro-LTyr-LTrp-NH2] ([pGlu]NPYW-NH2): 120
Cc1cc(=O)oc2cc(NC(=O)[C@@H](Cc3c[nH]c4ccccc34)NC(=O)[C@@H](Cc3ccc(O)cc3)NC(=O)[C@@H]3CCCN3C(=O)[C@H](CC(N)=O)NC(=O)[C@@H]3CCC(=O)N3)ccc12 [Glp-Asn-Pro-DTyr-DTrp-AMC] ([pGlu]NP[dY][dW]-{AMC}): 22
Cc1cc(=O)oc2cc(NC(=O)[C@H](Cc3c[nH]c4ccccc34)NC(=O)[C@H](Cc3c[nH]c4ccccc34)NC(=O)[C@H](Cc3ccc(O)cc3)NC(=O)[C@@H]3CCCN3C(=O)[C@H](CC(N)=O)NC(=O)[C@@H]3CCC(=O)N3)ccc12 [Glp-Asn-Pro-LTyr-LTrp-LTrp-AMC] ([pGlu]NPYWW-{AMC}): 8.8

Now look at this entry.
Asked: Give Ki; test system [^3H][3-Me-His^2]TRH-labelled native TRH receptors in rat hippocampal membranes; compound Cc1cc(=O)oc2cc(NC(=O)[C@H](Cc3c[nH]c4ccccc34)NC(=O)[C@H](Cc3ccc(O)cc3)NC(=O)[C@@H]3CCCN3C(=O)[C@H](CC(N)=O)NC(=O)[C@@H]3CCC(=O)N3)ccc12 [Glp-Asn-Pro-LTyr-LTrp-AMC] ([pGlu]NPYW-{AMC})
Given back: 80

----------
Parameter: pKi. Scope: all listed entries.
Molecular target: [^3H][3-Me-His^2]TRH-labelled native TRH receptors in rat cortical membranes
Test: Displacement of [3H][3-Me-His2]TRH, native rat cortical membranes
Assay type: binding
Conditions: native rat tissue; N = 3-6
Non-standard residues stand in square brackets, D forms with d. Residues, ends and D or L forms follow the SMILES beside them. *: point of attachment. AMC = Cc1cc(=O)oc2cc(N*)ccc12; pGlu = O=C1CC[C@@H](C(=O)O)N1
Please keep in mind that pKi is minus log10 of the molar concentration; only the number is needed.

Cc1cc(=O)oc2cc(NC(=O)[C@@H](Cc3c[nH]c4ccccc34)NC(=O)[C@@H](Cc3ccc(O)cc3)NC(=O)[C@@H]3CCCN3C(=O)[C@H](CC(N)=O)NC(=O)[C@@H]3CCC(=O)N3)ccc12 [Glp-Asn-Pro-DTyr-DTrp-AMC] ([pGlu]NP[dY][dW]-{AMC}): 8.77
NC(=O)C[C@H](NC(=O)[C@@H]1CCC(=O)N1)C(=O)N1CCC[C@H]1C(=O)N[C@H](Cc1ccc(O)cc1)C(=O)N[C@H](Cc1c[nH]c2ccccc12)C(N)=O [Glp-Asn-Pro-D-Tyr-D-TrpNH2] ([pGlu]NP[dY][dW]-NH2): 8.17
Cn1cnc(C[C@H](NC(=O)[C@@H]2CCC(=O)N2)C(=O)N2CCC[C@H]2C(N)=O)c1 [[3-Me-His2]TRH, reference compound]: 7.13
NC(=O)C[C@H](NC(=O)[C@@H]1CCC(=O)N1)C(=O)N1CCC[C@H]1C(=O)N[C@@H](Cc1ccc(O)cc1)C(=O)N[C@@H](Cc1c[nH]c2ccccc12)C(N)=O [Glp-Asn-Pro-LTyr-LTrp-NH2] ([pGlu]NPYW-NH2): 6.96

Asked: Consider the compound Cc1cc(=O)oc2cc(NC(=O)[C@H](Cc3c[nH]c4ccccc34)NC(=O)[C@H](Cc3ccc(O)cc3)NC(=O)[C@@H]3CCCN3C(=O)[C@H](CC(N)=O)NC(=O)[C@@H]3CCC(=O)N3)ccc12 [Glp-Asn-Pro-LTyr-LTrp-AMC] ([pGlu]NPYW-{AMC}) and give its recorded pKi.
Given back: 6.48

Asked: Consider the compound Cc1cc(=O)oc2cc(NC(=O)[C@@H](Cc3c[nH]c4ccccc34)NC(=O)[C@@H](Cc3c[nH]c4ccccc34)NC(=O)[C@@H](Cc3ccc(O)cc3)NC(=O)[C@@H]3CCCN3C(=O)[C@H](CC(N)=O)NC(=O)[C@@H]3CCC(=O)N3)ccc12 [Glp-Asn-Pro-DTyr-DTrp-DTrp-AMC] ([pGlu]NP[dY][dW][dW]-{AMC}) and give its recorded pKi.
Given back: 7.60

----------
Protein target, amino acids: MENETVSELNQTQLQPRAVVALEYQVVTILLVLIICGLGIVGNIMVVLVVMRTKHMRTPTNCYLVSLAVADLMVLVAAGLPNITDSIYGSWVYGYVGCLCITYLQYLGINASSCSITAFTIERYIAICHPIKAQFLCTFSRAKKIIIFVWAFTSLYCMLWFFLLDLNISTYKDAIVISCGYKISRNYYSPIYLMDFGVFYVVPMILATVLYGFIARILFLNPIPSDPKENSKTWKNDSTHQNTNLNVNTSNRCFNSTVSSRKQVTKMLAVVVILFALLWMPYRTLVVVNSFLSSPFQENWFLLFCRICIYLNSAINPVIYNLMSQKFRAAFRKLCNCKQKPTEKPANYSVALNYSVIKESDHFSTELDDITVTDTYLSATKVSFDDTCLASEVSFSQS
value.kind: IC50

Asked: Consider the molecule NC(=O)[C@@H]1CCCN1C(=O)[C@H](Cc1cnc[nH]1)NC(=O)[C@@H]1CCC(=O)N1 [TRH, Thyrotropin releasing hormone, reference compound] and give its recorded IC50.
Given back: ~10 nM

Cited source: patent US9873717B2
